MEASUREMENT_TARGET: T1, ROR1 extracellular domain Fc-fusion, dimer (human, UniProt Q01973 30-406)
T1 construct: also called ROR1 dimer; hROR1 dimeric ECD-Fc fusion protein; not shown: Fc part
T1 sequence (Q01973 30-406): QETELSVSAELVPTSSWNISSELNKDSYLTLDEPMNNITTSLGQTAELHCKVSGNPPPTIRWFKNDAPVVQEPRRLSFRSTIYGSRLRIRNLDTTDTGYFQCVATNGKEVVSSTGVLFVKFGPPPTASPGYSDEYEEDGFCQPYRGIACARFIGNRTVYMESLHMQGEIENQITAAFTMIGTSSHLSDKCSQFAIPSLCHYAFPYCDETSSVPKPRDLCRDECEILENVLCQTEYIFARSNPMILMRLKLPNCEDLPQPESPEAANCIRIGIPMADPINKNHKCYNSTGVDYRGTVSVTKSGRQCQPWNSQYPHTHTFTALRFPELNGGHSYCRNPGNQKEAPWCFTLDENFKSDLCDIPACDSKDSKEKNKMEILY
TEST: SPR, immobilised ROR1 dimer, antibody injected, 1:1 model; apparent affinity
pKd: −log10 of the molar value.
# pKd per entry
PARAMETER_MEASURED: pKd

• Antibody 601-50 (antibody, V domains shown) VH: QVQLQQSGAEVKKPGASVKVSCKASGYTFSRYYIHWVRRAPGQGLEWMGLINPGGGSTNYAQKFQGRVTMTRDTSTNTVYLELSSLRSDDTAVYYCARDYGTIDARRFDFWGQGTLVTVSS VL: QSALTQPPSASGTPGQRVTISCPGSSSNIGSNYVYWYQQLPGTAPKLLIYRNNQRPSGVPDRFSGSKSGTSATLGITGLQTGDEADYYCGTWDSSLSAYVFGTGTKVTVL = 8.96
• Antibody 601-28 (antibody, V domains shown) VH: EVQLVQSGGDLVQPGGSLRLSCAASGFTFSSYSMNWVRQAPGKGLEWVSSISSSSSYIYYADSVKGRFTISRDNAKNSLYLQMNSLRAEDTAVYYCARGLGGWTHDAFDIWGQGTTVTVSS VL: QSALTQPASVSGSPGQSITISCTGTSSDVGGYNYVSWYQQHPGKAPKLMIFDVSNRPSGVSNRFSGSKSGNTASLTISGLQAEDEADYYCSSYTSSSTLFGGGTKLTVL = 7.55
